- Test: Oral bioavailability in Sprague-Dawley rat at 2 mg/kg by LC-MS/MS analysis
- Format: ADME, organism-based
- Recorded conditions: in vivo

{"Molecular string": "Nc1ccc(-c2nc(F)c([C@@H]3[C@H]4C[C@H]4c4cc(-c5cc(Cl)ccc5-n5cnnn5)cc(=O)n43)[nH]2)c(F)n1", "bioavailability / %": 25.3}

---

- Test: Half life in Sprague-Dawley rat at 1 mg/kg, iv by LC-MS/MS analysis
- Assay type: ADME, organism-based
- Recorded conditions: in vivo
Reported metric: half-life (h)

{"Molecular string": "Nc1ccc(-c2nc(F)c([C@@H]3[C@H]4C[C@H]4c4cc(-c5cc(Cl)ccc5-n5cnnn5)cc(=O)n43)[nH]2)c(F)n1", "Reported metric": "half-life", "U": "h", "Measurement": 1.6}
